# target: IRAP (Homo sapiens)
# Sequence (Q9UIQ6 whole entry): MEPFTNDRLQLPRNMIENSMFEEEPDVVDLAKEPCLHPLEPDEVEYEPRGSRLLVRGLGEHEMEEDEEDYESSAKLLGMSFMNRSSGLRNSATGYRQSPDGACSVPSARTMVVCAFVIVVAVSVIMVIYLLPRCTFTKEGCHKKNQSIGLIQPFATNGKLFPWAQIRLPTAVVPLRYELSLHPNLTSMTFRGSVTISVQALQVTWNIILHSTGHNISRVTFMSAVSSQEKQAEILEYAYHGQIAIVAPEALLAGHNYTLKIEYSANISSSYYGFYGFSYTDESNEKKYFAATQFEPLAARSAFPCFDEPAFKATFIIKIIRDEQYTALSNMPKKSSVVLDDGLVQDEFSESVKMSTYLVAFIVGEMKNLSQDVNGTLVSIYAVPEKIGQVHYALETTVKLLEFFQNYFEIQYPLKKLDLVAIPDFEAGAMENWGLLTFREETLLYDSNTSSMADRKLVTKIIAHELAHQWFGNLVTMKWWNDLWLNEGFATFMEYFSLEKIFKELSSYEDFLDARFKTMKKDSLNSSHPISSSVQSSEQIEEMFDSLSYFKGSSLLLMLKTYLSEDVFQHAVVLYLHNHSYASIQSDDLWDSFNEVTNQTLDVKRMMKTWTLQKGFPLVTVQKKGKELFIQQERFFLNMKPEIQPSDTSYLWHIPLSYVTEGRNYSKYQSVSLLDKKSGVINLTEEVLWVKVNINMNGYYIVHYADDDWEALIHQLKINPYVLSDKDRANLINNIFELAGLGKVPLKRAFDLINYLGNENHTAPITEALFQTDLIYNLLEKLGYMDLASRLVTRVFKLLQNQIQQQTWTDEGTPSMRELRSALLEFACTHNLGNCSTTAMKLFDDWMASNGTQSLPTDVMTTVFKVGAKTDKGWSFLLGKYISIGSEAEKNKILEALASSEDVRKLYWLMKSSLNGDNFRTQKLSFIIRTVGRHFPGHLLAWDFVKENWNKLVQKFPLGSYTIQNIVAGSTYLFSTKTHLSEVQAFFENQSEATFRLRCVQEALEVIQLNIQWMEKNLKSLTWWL
Listed below: IC50 values for each entry.
Enter your answer as a number in nM; do not include the unit.

CCOC(=O)C1=C(N)Oc2cc(O)ccc2C1c1cccnc1 (centres unmarked) [reference compound] = 3000

# ---- query molecule ----
**Q:** I'm curious: which IC50 was measured for CCOC(=O)C1=C(NC(C)=O)Oc2cc(O)ccc2C1c1cccnc1 (centres unmarked) tested on IRAP (Homo sapiens)?
**A:** 790

Sourced from patent US8377963B2
